Tested on: MIA PaCa-2 cells
protocol text: Growth inhibition activity on KRAS-G12C mutant cell line (CellTiter-Glo 3D)
Assay type: cell-based, human
condition: MIA PaCa-2, 3-day culture with compound; Table 3
Parameter: IC50. Scope: all listed entries.

compound: CO[C@H]1CC[C@H](NC/C=C/C(=O)Nc2c(F)cc(C(=O)c3cc4c5c(cccn35)-c3c(C(F)(F)F)cc5c(nc(C)n5C)c3OCC4)cc2F)CC1 (single isomer, unassigned) [Example 30-1]
IC50: 0.003 µM
--
compound: CO[C@H]1CC[C@H](NC/C=C/C(=O)Nc2c(F)cc(C(=O)c3cn4c5c(cccc35)-c3c(Cl)cccc3OCC4)cc2F)CC1 (single isomer, unassigned) [Example 1-1]
IC50: 7.7 µM

Continue with the next compound.
Would you kindly share the measured IC50 for CO[C@H]1CC[C@H](NC/C=C/C(=O)Nc2c(F)cc(C(=O)c3cn4c5c(cccc35)-c3c(cccc3C(F)(F)F)OCC4)cc2F)CC1 (single isomer, unassigned) [Example 11-1] ? 7.8 µM

---

Test system: MIA PaCa-2 cells
protocol text: Growth inhibition activity on KRAS-G12C mutant cell line (CellTiter-Glo 3D)
Format: cell-based, human
condition: Homo sapiens, MIA PaCa-2, 72 h, MIA PaCa-2, 3-day culture with compound; Table 3-1
pIC50: −log10 of the molar value.
Entry flag: Met if pIC50 reaches 8; Not met if it does not.

# example entries with known answers
molecule: COCc1nc2c3c(c(C(F)(F)F)cc2n1C)-c1cccn2c(C(=O)c4cc(F)c(NC(=O)/C=C/CN[C@H]5CCOC5)c(F)c4)cc(c12)CCN3C (single isomer, unassigned) [Example 98]
category label: Met
--
molecule: CO[C@H]1CC[C@H](NC/C=C/C(=O)Nc2c(F)cc(C(=O)c3cc4c5c(cccn35)-c3c(C)cc5c(ncn5C)c3N(C)CC4)cc2F)CC1 [Example 110]
category label: Not met

Now consider a different molecule.
Reported pIC50 at or above 8? Cn1cnc2c3c(c(C(F)(F)F)cc21)-c1cccn2c(C(=O)c4cc(F)c(NC(=O)/C=C/CN5C6CCCC5COC6)c(F)c4)cc(c12)CCO3 [Example 221] Not met

---

Parameter: IC50. Scope: all listed entries.
Test system: MIA PaCa-2 cells
protocol text: Growth inhibition activity on KRAS-G12C mutant cell line (CellTiter-Glo 3D)
Format: cell-based, human
condition: Homo sapiens, MIA PaCa-2, 72 h, MIA PaCa-2, 3-day culture with compound; Table 3-1
Return type: number; implicit unit nM.

compound: Cc1cnc2c3c(c(C(F)(F)F)cn12)-c1cccn2c(C(=O)c4cc(F)c(NC(=O)/C=C/CN[C@H]5CCOC5)c(F)c4)cc(c12)CCN3C (single isomer, unassigned)
IC50 / nM: 16.7
//
compound: Cc1nc2c3c(c(C(F)(F)F)cc2n1C)-c1cccc2c(C(=O)c4cc(F)c(NC(=O)/C=C/CNC5(C)COC5)c(F)c4)cn(c12)CCO3
IC50 / nM: 8.68
//
compound: CN1CCc2nc(C(=O)c3cc(F)c(NC(=O)/C=C/CN[C@H]4CCOC4)c(F)c3)n3cccc(c23)-c2c(C(F)(F)F)cc3c(ncn3C)c21 (single isomer, unassigned)
IC50 / nM: 16.4
//
compound: CN1CCc2cc(C(=O)c3cc(F)c(NC(=O)/C=C/CNC4(C)CC4)c(F)c3)n3cccc(c23)-c2c(C(F)(F)F)cc3[nH]cnc3c21 (atropisomer, axis not shown)
IC50 / nM: 9.69
//
compound: CC(=O)C(C)(C)NC/C=C/C(=O)Nc1c(F)cc(C(=O)c2cn3c4c(cccc24)-c2c(C)cc4c(nc(C)n4C)c2N(C)CC3)cc1F
IC50 / nM: 30.9
//
compound: CO[C@H]1CC[C@H](NC/C=C/C(=O)Nc2c(F)cc(C(=O)c3cc4c5c(cccn35)-c3c(C)cc5c(nc(C)n5C)c3N(C)CC4)cc2F)CC1 (single isomer, unassigned)
IC50 / nM: 15.5

Would you kindly share the measured IC50 for `CC(=O)CC(C)(C)NC/C=C/C(=O)Nc1c(F)cc(C(=O)c2cn3c4c(cccc24)-c2c(C)cc4c(nc(C)n4C)c2N(C)CC3)cc1F` ? 332

Would you kindly share the measured IC50 for `Cn1cnc2c3c(c(C(F)(F)F)cc21)-c1cccn2c(C(=O)c4cc(F)c(NC(=O)/C=C/CN5CC[C@@H](O)C5)c(F)c4)cc(c12)CCO3` ? 33.9

Would you kindly share the measured IC50 for `Cc1cc2c(nc(C)n2C)c2c1-c1cccc3c(C(=O)c4cc(F)c(NC(=O)/C=C/CN[C@H]5C[C@H]6CC[C@@H]5O6)c(F)c4)cn(c13)CCN2C` ? 36.1

Would you kindly share the measured IC50 for `COCc1nc2c3c(c(OC)cc2n1C)-c1cccn2c(C(=O)c4cc(F)c(NC(=O)/C=C/CNC5(C)CC5)c(F)c4)cc(c12)CCN3C` ? 7.45

Would you kindly share the measured IC50 for `CN1CCn2cc(C(=O)c3cc(F)c(NC(=O)/C=C/CNC(C)(C)CF)c(F)c3)c3cccc(c32)-c2c(C(F)(F)F)cc3c(ncn3C)c21` ? 33.4

Would you kindly share the measured IC50 for `COCc1nc2c3c(c(C(F)(F)F)cc2n1C)-c1cccn2c(C(=O)c4cc(F)c(NC(=O)/C=C/CN[C@H]5CCOC5)c(F)c4)cc(c12)COC3` ? 18.7

Would you kindly share the measured IC50 for `Cn1cnc2c3c(c(C(F)(F)F)cc21)-c1cccn2c(C(=O)c4cc(F)c(NC(=O)/C=C/CN5C[C@H]6COC[C@H]6C5)c(F)c4)cc(c12)CCO3` ? 25.3

Would you kindly share the measured IC50 for COCc1nc2c3c(c(OC)cc2n1C)-c1cccn2c(C(=O)c4cc(F)c(NC(=O)/C=C/CN[C@H]5CCOC5)c(F)c4)c(C)c(c12)CCN3C (single isomer, unassigned) ? 73.4

---

System: MIA PaCa-2 cells
protocol text: Growth inhibition activity on KRAS-G12C mutant cell line (CellTiter-Glo 3D)
Assay type: cell-based, human
condition: MIA PaCa-2, 3-day culture with compound; Table 3
Parameter: pIC50. Scope: all listed entries.
Keep it numeric: pIC50 is minus log10 of the concentration in mol/L.

compound: CO[C@H]1CC[C@H](NC/C=C/C(=O)Nc2c(F)cc(C(=O)c3cn4c5c(cccc35)-c3c(C)cc5c(nc(C)n5C)c3OCC4)cc2F)CC1 (single isomer, unassigned) [Example 14-1]
pIC50: 7.77
--
compound: CO[C@H]1CC[C@H](NC/C=C/C(=O)Nc2c(F)cc(C(=O)c3cn4c5c(cccc35)-c3c(Cl)cccc3OCCC4)cc2F)CC1 (single isomer, unassigned) [Example 4-2]
pIC50: 6.59
--
compound: CO[C@H]1CC[C@H](NC/C=C/C(=O)Nc2c(F)cc(C(=O)c3cn4c5c(cccc35)-c3c(C)cc5c(nc(C)n5C)c3OCCC4)cc2F)CC1 (single isomer, unassigned) [Example 15-1]
pIC50: 5.57

Would you kindly share the measured pIC50 for CO[C@H]1CC[C@H](NC/C=C/C(=O)Nc2c(F)cc(C(=O)c3cc4c5c(cccn35)-c3c(C(F)(F)F)cc5c(nc(C)n5C)c3OC(C)C4)cc2F)CC1 (single isomer, unassigned) [Example 42-1] ? 8.22

Would you kindly share the measured pIC50 for CC(C)(C)NC/C=C/C(=O)Nc1c(F)cc(C(=O)c2cn3c4c(cccc24)-c2c(Cl)cccc2OCCC3)cc1F (single isomer, unassigned) [Example 2-2] ? 6.41

---

assay target: interaction between GMPPNP-bound recombinant K-Ras4B G12C mutant protein and cRAF RAS-binding domain (cRAF-RBD) (Homo sapiens, UniProt P01116, G12C)
Construct: His-tag (N)
Sequence (P01116 with tags, fused parts or gaps isoform P01116-2 G12C): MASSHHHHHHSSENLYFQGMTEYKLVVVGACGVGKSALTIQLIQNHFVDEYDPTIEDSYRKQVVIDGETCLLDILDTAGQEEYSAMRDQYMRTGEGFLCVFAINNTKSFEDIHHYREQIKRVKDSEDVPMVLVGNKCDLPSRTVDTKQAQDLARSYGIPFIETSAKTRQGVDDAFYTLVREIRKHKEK
protocol text: Inhibitory activity on interaction between KRAS G12C and cRAF (Alpha technology)
condition: GMPPNP-bound KRAS G12C incubated with compound 25° C. 1 hour; Table 2-1; read-out: IC50
Parameter: log10 of IC50. Scope: all listed entries.
Hello, just confirming the data are log10 of IC50 with units of nM.

compound: CC(=O)NC[C@@H]1CCN1C/C=C/C(=O)Nc1c(F)cc(C(=O)c2cc3c4c(cccn24)-c2c(C(F)(F)F)cc4c(ncn4C)c2OCC3)cc1F
log10 of IC50: 1.96
--
compound: COCc1nc2c3c(c(OC)cc2n1C)-c1cccn2c(C(=O)c4cc(F)c(NC(=O)/C=C/CNC5(C)CC5)c(F)c4)nc(c12)CCN3C (single isomer, unassigned)
log10 of IC50: 1.68
--
compound: Cc1cc2c(nc(C)n2C)c2c1-c1cccn3c(C(=O)c4cc(F)c(NC(=O)/C=C/CN[C@H]5CCOC5)c(F)c4)cc(c13)CCN2C (single isomer, unassigned)
log10 of IC50: 1.37
--
compound: CN1CCc2cc(C(=O)c3cc(F)c(NC(=O)/C=C/CNCCO)c(F)c3)n3cccc(c23)-c2c(C(F)(F)F)cc3c(ncn3C)c21
log10 of IC50: 1.49
--
compound: COCc1nc2c3c(c(OC)cc2n1C)-c1cccn2c(C(=O)c4cc(F)c(NC(=O)/C=C/CN[C@H]5CCOC5)c(F)c4)nc(c12)CCN3C (single isomer, unassigned)
log10 of IC50: 1.60
--
compound: COc1cc2c(nc(C(F)(F)F)n2C)c2c1-c1cccn3c(C(=O)c4cc(F)c(NC(=O)/C=C/CN[C@H]5CCOC5)c(F)c4)cc(c13)CCN2C (single isomer, unassigned)
log10 of IC50: 1.64
--
compound: Cn1cnc2c3c(c(C(F)(F)F)cc21)-c1cccn2c(C(=O)c4cc(F)c(NC(=O)/C=C/CN5[C@@H]6CC[C@H]5[C@H](O)C6)c(F)c4)cc(c12)CCO3 (racemic)
log10 of IC50: 0.85
--
compound: Cn1cnc2c3c(c(C(F)(F)F)cc21)-c1cccn2c(C(=O)c4cc(F)c(NC(=O)/C=C/CN5C[C@H]6C[C@@H]5CO6)c(F)c4)cc(c12)CCO3
log10 of IC50: 1.01
--
compound: Cc1cc2c(ncn2C)c2c1-c1cccn3c(C(=O)c4cc(F)c(NC(=O)/C=C/CNC5(C)CCOCC5)c(F)c4)cc(c13)CCN2C
log10 of IC50: 1.42
--
compound: Cc1cc2c(ncn2C)c2c1-c1cccn3c(C(=O)c4cc(F)c(NC(=O)/C=C/CNC56CCC(CC5)OC6)c(F)c4)cc(c13)CCN2C
log10 of IC50: 1.49

Continue with the next compound.
Would you kindly share the measured log10 of IC50 for `COCCn1c(COC)[n+]([O-])c2c3c(c(OC)cc21)-c1cccn2c(C(=O)c4cc(F)c(NC(=O)/C=C/CNC5(C)CC5)c(F)c4)cc(c12)CCN3C` ? 1.92
